Assay: Antiproliferative activity against human A375M cells harboring BRAF V600E mutant after 24 hrs by MTT assay
Format: functional, cell-based
measured.attribute: IC50 (µM)
Numbers only; they are read as µM.

Here are 4 compounds together with their reported answers.
O=C1c2cccc3cc([N+](=O)[O-])cc(c23)C(=O)N1CCN=C=[Se] :: 24.8
O=C1c2cccc3cccc(c23)C(=O)N1CCCCN=C=[Se] :: 19.4
CN(C)CCN1C(=O)c2cccc3cc([N+](=O)[O-])cc(c23)C1=O [MITONAFIDE] :: 3.8
O=C1c2cccc3cccc(c23)C(=O)N1CCCCCCN=C=[Se] :: 11.8

Consider the record given below.
## Task // IC50 lookup, key: O=C1c2cccc3cccc(c23)C(=O)N1CCN=C=[Se]
## Result 9.7

----------
Assay: Antiproliferative activity against human 1205 Lu cells harboring BRAF V600E mutant after 72 hrs by MTT assay
Assay type: functional, cell-based
measured.attribute: log10 of IC50 (log10 of the value in µM)
Heads up: the numbers are on a log10 scale; they represent IC50 in µM.

N=C(N)[Se]CCN1C(=O)c2cccc3cccc(c23)C1=O :: 0.91
N=C(N)[Se]CCN1C(=O)c2cccc3cc([N+](=O)[O-])cc(c23)C1=O :: 1.60
CCCS(=O)(=O)Nc1ccc(F)c(C(=O)c2c[nH]c3ncc(-c4ccc(Cl)cc4)cc23)c1F :: 0.30
O=C1c2cccc3cccc(c23)C(=O)N1CCCCN=C=[Se] :: 1.19
O=C1c2cccc3cc([N+](=O)[O-])cc(c23)C(=O)N1CCN=C=[Se] :: 1.31
O=C1c2cccc3cccc(c23)C(=O)N1CCN=C=[Se] :: 0.97
O=C1c2cccc3cccc(c23)C(=O)N1CCCCCCN=C=[Se] :: 1.13

Consider the record given below.
## Task // log10 of IC50 lookup, key: CN(C)CCN1C(=O)c2cccc3cc([N+](=O)[O-])cc(c23)C1=O [MITONAFIDE]
## Result -0.22

----------
Tested on: CHL-1
Assay: Antiproliferative activity against human CHL-1 cells harboring wild type BRAF after 24 hrs by MTT assay
Type: functional, cell-based
Conditions: CHL-1, 24 h
Reported pIC50 by item:
# pIC50: negative log10 of molar concentration; output just the value

Here are 5 compounds together with their reported answers.
CN(C)CCN1C(=O)c2cccc3cc([N+](=O)[O-])cc(c23)C1=O [MITONAFIDE] :: 5.55
O=C1c2cccc3cc([N+](=O)[O-])cc(c23)C(=O)N1CCN=C=[Se] :: 4.82
O=C1c2cccc3cccc(c23)C(=O)N1CCCCCCN=C=[Se] :: 4.86
O=C1c2cccc3cccc(c23)C(=O)N1CCN=C=[Se] :: 5.20
N=C(N)[Se]CCN1C(=O)c2cccc3cccc(c23)C1=O :: 4.75

Consider the record given below.
## Task Give CHL-1 pIC50 for O=C1c2cccc3cccc(c23)C(=O)N1CCCCN=C=[Se]
## Result 5.01

----------
Experiment: Antiproliferative activity against human 1205 Lu cells harboring BRAF V600E mutant after 24 hrs by MTT assay
Format: functional, cell-based
measured.attribute: IC50

Here are 5 compounds together with their reported answers.
CCCS(=O)(=O)Nc1ccc(F)c(C(=O)c2c[nH]c3ncc(-c4ccc(Cl)cc4)cc23)c1F :: > 50 µM
O=C1c2cccc3cccc(c23)C(=O)N1CCCCN=C=[Se] :: 13.1 µM
O=C1c2cccc3cc([N+](=O)[O-])cc(c23)C(=O)N1CCN=C=[Se] :: 21.6 µM
N=C(N)[Se]CCN1C(=O)c2cccc3cccc(c23)C1=O :: 46.8 µM
CN(C)CCN1C(=O)c2cccc3cc([N+](=O)[O-])cc(c23)C1=O [MITONAFIDE] :: 11.1 µM

## Task // IC50 lookup, key: N=C(N)[Se]CCN1C(=O)c2cccc3cc([N+](=O)[O-])cc(c23)C1=O
## Result > 50 µM

## Task // IC50 lookup, key: O=C1c2cccc3cccc(c23)C(=O)N1CCN=C=[Se]
## Result 11 µM

## Task // IC50 lookup, key: O=C1c2cccc3cccc(c23)C(=O)N1CCCCCCN=C=[Se]
## Result 13.4 µM

----------
Test: Antiproliferative activity against human A375M cells harboring BRAF V600E mutant after 48 hrs by MTT assay
Format: functional, cell-based
measured.attribute: pIC50
# pIC50: negative log10 of molar concentration; output just the value

O=C1c2cccc3cccc(c23)C(=O)N1CCCCN=C=[Se] :: 4.68

## Task // pIC50 lookup, key: CCCS(=O)(=O)Nc1ccc(F)c(C(=O)c2c[nH]c3ncc(-c4ccc(Cl)cc4)cc23)c1F
## Result 5.69

## Task // pIC50 lookup, key: CN(C)CCN1C(=O)c2cccc3cc([N+](=O)[O-])cc(c23)C1=O [MITONAFIDE]
## Result 5.82

## Task // pIC50 lookup, key: N=C(N)[Se]CCN1C(=O)c2cccc3cccc(c23)C1=O
## Result 4.75

----------
Test: Antiproliferative activity against human A375M cells harboring BRAF V600E mutant after 24 hrs by MTT assay
Format: functional, cell-based
pIC50: −log10 of the molar value.
measured.attribute: pIC50

Here are 2 molecules together with their reported answers.
N=C(N)[Se]CCN1C(=O)c2cccc3cccc(c23)C1=O :: < 4.30
CCCS(=O)(=O)Nc1ccc(F)c(C(=O)c2c[nH]c3ncc(-c4ccc(Cl)cc4)cc23)c1F :: < 4.30

Consider the record given below.
## Task // pIC50 lookup, key: N=C(N)[Se]CCN1C(=O)c2cccc3cc([N+](=O)[O-])cc(c23)C1=O
## Result < 4.30

----------
Experiment: Antiproliferative activity against human A375M cells harboring BRAF V600E mutant after 48 hrs by MTT assay
Assay type: functional, cell-based
Reported pIC50 by item:
# pIC50: negative log10 of molar concentration; output just the value

Here are 2 molecules together with their reported answers.
O=C1c2cccc3cccc(c23)C(=O)N1CCCCCCN=C=[Se] :: 5.57
O=C1c2cccc3cc([N+](=O)[O-])cc(c23)C(=O)N1CCN=C=[Se] :: 4.68

Consider the record given below.
## Task // pIC50 lookup, key: O=C1c2cccc3cccc(c23)C(=O)N1CCN=C=[Se]
## Result 5.11
